- Test system: 388556-164-R-J1-PDC complex spheroid viability;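 note: spheroids exposed to compound for 7 days before readout; 100% = DMSO vehicle control luminescence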
- MEASUREMENT DESCRIPTION: Anticancer human tumor 388556-164-R-J1-PDC patient-derived colon adenocarcinoma cell line growth inhibition [RAS]
- TEST SETTINGS: second compound 0.03 µM; first compound 0.00316 µM; hits give low values

{"COMPOUND": "O=C(c1ccc(F)c(F)c1Nc1ccc(I)cc1F)N1CC(O)([C@@H]2CCCCN2)C1 + CCn1c(-c2cccnc2C(C)OC)c2c3cc(ccc31)N1CCOC(CC(NC(=O)C(C(C)C)N(C)C(=O)C3(F)CCN(C(=O)C#CC(C)(C)N(C)C)CC3)C(=O)N3CCCC(N3)C(=O)OCC(C)(C)C2)C1", "viability, T/C (%)": 115}
{"COMPOUND": "C=CC(=O)Nc1cc(Nc2nccc(-c3cn(C)c4ccccc34)n2)c(OC)cc1N(C)CCN(C)C + CCn1c(-c2cccnc2C(C)OC)c2c3cc(ccc31)N1CCOC(CC(NC(=O)C(C(C)C)N(C)C(=O)C3(F)CCN(C(=O)C#CC(C)(C)N(C)C)CC3)C(=O)N3CCCC(N3)C(=O)OCC(C)(C)C2)C1", "viability, T/C (%)": 107}
{"COMPOUND": "Nc1ccn(C2OC(CO)C(O)C2(F)F)c(=O)n1 (centres undefined) + CCn1c(-c2cccnc2C(C)OC)c2c3cc(ccc31)N1CCOC(CC(NC(=O)C(C(C)C)N(C)C(=O)C3(F)CCN(C(=O)C#CC(C)(C)N(C)C)CC3)C(=O)N3CCCC(N3)C(=O)OCC(C)(C)C2)C1", "viability, T/C (%)": 98.4}
{"COMPOUND": "C=CC(=O)Nc1cc(Nc2nccc(-c3cn(C)c4ccccc34)n2)c(OC)cc1N(C)CCN(C)C + CCn1c(-c2cc(N3CCN(C)CC3)cnc2C(C)OC)c2c3cc(ccc31)-c1csc(n1)CC(NC(=O)C1CC1C)C(=O)N1CCCC(N1)C(=O)OCC(C)(C)C2", "viability, T/C (%)": 62.1}
